pIC50: −log10 of the molar value.
# 5-hydroxytryptamine receptor 1A (Homo sapiens, UniProt P08908): pIC50 values follow
# Sequence (P08908 whole entry): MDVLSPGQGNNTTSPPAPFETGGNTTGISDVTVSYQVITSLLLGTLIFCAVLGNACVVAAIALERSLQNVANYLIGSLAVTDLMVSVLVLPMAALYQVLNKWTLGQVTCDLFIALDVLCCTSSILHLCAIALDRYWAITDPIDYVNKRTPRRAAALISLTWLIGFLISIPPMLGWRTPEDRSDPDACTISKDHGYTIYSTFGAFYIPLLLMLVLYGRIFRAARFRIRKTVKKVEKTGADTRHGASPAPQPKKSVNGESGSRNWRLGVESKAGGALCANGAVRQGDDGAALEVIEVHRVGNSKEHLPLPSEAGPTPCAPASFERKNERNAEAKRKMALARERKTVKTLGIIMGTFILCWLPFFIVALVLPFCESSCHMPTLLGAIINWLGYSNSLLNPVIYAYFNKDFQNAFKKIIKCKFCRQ
Value kind: pIC50

                    structure_smiles_string  reading
0  O=C(N(CCN1CCN(c2ccccc2O)CC1)c1ccccn1)C12CCC(CF)(CC1)CC2     8.75
1  COc1ccccc1N1CCN(CCN(C(=O)C23CC4CC(CC(CF)(C4)C2)C3)c2ccccn2)CC1     8.37
2  COc1ccccc1N1CCN(CCN(C(=O)C23CCC(CF)(CC2)C3)c2ccccn2)CC1     8.69

* * *

test: physchem; conditions: buffer, pH 7.4
Below is a list of entries, each paired with its recorded logD value.
Value kind: logD

In [3]: df
Out[3]:
                                   compound  reading
0  COc1ccccc1N1CCN(CCN(C(=O)C23C4C5C2C2C3C4C52CF)c2ccccn2)CC1 (stereo not drawn)     2.94
1  COc1ccccc1N1CCN(CCN(C(=O)C23CCC(CF)(CC2)C3)c2ccccn2)CC1      2.7
2  COc1ccccc1N1CCN(CCN(C(=O)C23CCC(CF)(CC2)CC3)c2ccccn2)CC1     3.37

Data provenance: ChEMBL document CHEMBL1909551
